- TEST_SUMMARY: method code SF-AS, from PMID: 4730594
- TEST_PARAMETERS: pH 7.0
MEASURE_NAME: logD

Example entries and their recorded answers appear below.
• O=[N+]([O-])c1c(Cl)c[n+]([O-])c2ccccc12 = 1.33
• CC(=O)ONc1ccnc2ccccc12 = 0.97
• Cc1ccc2c(c1)c([N+](=O)[O-])cc[n+]2[O-] = 1.43
• O=[N+]([O-])c1cc2ccccc2[n+]([O-])c1 = 0.56
• Cc1cc([N+](=O)[O-])c2ccccc2[n+]1[O-] = 1.25

A = O=[N+]([O-])c1ccc2c(c1)c([N+](=O)[O-])cc[n+]2[O-]
B = O=[N+]([O-])c1cccc2c1ccc[n+]2[O-]
C = Cc1cccc2c([N+](=O)[O-])cc[n+]([O-])c12
Would you mind ranking these compounds by ascending logD? Output spec: labels arranged per the requested ranking.
B, A, C

P = CC(=O)ON=c1ccn(OC(C)=O)c2ccccc12
Q = O/N=c1/ccn(O)c2ccccc12
Record comparison, field logD: mark the lower of P and Q . Your choice should be expressed through its label.
Q
(Q: 0, P: 1.04)

a = Cc1cccc2c1c([N+](=O)[O-])cc[n+]2[O-]
b = O=[N+]([O-])c1ccc2ccc[n+]([O-])c2c1
Hi team, can someone confirm which has the larger logD: a or b ? Thanks. Your choice should be expressed through its label.
a

A = O=[N+]([O-])c1cc[n+]([O-])c2c(F)cccc12
B = CC(C)(C)c1ccc2c(c1)c([N+](=O)[O-])cc[n+]2[O-]
Hi team, can someone confirm which has the larger logD: A or B ? Thanks. Your choice should be expressed through its label.
B
(B: 1.51, A: 1)

A = O=[N+]([O-])c1cc[n+]([O-])c2ccc(Cl)cc12
B = O=[N+]([O-])c1cccc2ccc[n+]([O-])c12
C = CCCCc1ccc2c(c1)c([N+](=O)[O-])cc[n+]2[O-]
D = O=c1ccn(O)c2ccccc12
List from greatest to least logD. Output spec: labels arranged per the requested ranking.
C, A, B, D

I = Cc1ccc2c([N+](=O)[O-])cc[n+]([O-])c2c1
II = O=[N+]([O-])c1cccc2c1c([N+](=O)[O-])cc[n+]2[O-]
III = NC(=O)Cc1cc[n+]([O-])c2ccccc12
IV = O=[N+]([O-])c1ccc2c(ccc[n+]2[O-])c1
Would you mind ranking these compounds by ascending logD? Output spec: labels arranged per the requested ranking.
III, IV, II, I
(III: -0.11, IV: 0.39, II: 0.95, I: 1.42)

P = CS(=O)(=O)c1cc[n+]([O-])c2ccccc12
Q = [O-][n+]1ccc(Cl)c2ccccc21
Record comparison, field logD: mark the lower of P and Q . Your choice should be expressed through its label.
P
